In this section, each of the compounds is paired with its reported growth inhibition.
test: NCI Yeast Anticancer Drug Screen. Data for the cln2 rad14 strain (AID 165);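 also: 0% = growth equal to vehicle treated cultures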; settings: S. cerevisiae cln2 rad14 strain, at 50.0 µM, active compounds read high
The panel holds about 79,000 compounds, 15% with a hit somewhere; the sample as a whole holds those more often.
API: value field is a number in %; no unit string.

Use these answered entries as a reference point.
- compound: "CCN(CC)c1c(C)nnn1C1OC(COC(C)=O)C(OC(C)=O)C(OC(C)=O)C1OC(C)=O (configuration not stated)"
  quantity: "growth inhibition"
  reported-measurement: 3.15
- compound: "CC1(C)C2C/C(=N/O)C(=O)C1C2 (configuration not stated)"
  quantity: "growth inhibition"
  reported-measurement: 14.6
- compound: "CN(C)S(=O)(=O)c1cccc2ccccc12"
  quantity: "growth inhibition"
  reported-measurement: -6.9
- compound: "COc1ccc2nc(C)c3c(c2c1)C(=O)N(CCC[N+]1([O-])CC[N+]([O-])(CCCN2C(=O)c4c(c5cc(OC)ccc5[n+]([O-])c4C)C2=O)CC1)C3=O (configuration not stated)"
  quantity: "growth inhibition"
  reported-measurement: -35.7
- compound: "O=C1c2ccccc2Cc2ccc(O)cc21"
  quantity: "growth inhibition"
  reported-measurement: 10.3
- compound: "CC(=O)NC1C(OC(C)C(=O)NC(C(=O)NC(CCC(=O)NCCCNC2c3ccccc3Nc3cccc([N+](=O)[O-])c32)C(N)=O)C(C)C)C(O)C(CO)OC1(C)OCc1ccccc1 (configuration not stated)"
  quantity: "growth inhibition"
  reported-measurement: 13.4

For the next question, use this compound.
Sample C[N+](C)(C)CC(=O)N/N=C(\C(=O)Nc1ccc(Cl)cc1)C1C(=O)N(c2ccccc2)N=C1N (configuration not stated) ; growth inhibition observed: -13.8

---

assay: NCI Yeast Anticancer Drug Screen. Data for the mlh1 rad18 strain (AID 175); settings: S. cerevisiae mlh1 rad18 strain growth inhibition; at 50.0 µM
About 79,000 compounds went through this panel and 15% of them were active in at least one assay; those are over-represented in the sample as a whole. Calls of active or inactive are those of the source. Cut-off read from the data, not from the text of the source: active = growth inhibition above about 70%; inactive = the rest. Where a SMILES comes first, the peptide text is derived from it. [ ]: non-standard residue; d: D form. The star is where a group is joined. ξ: configuration not given here. ξE = NC(CCC(=O)O)C(=O)O; Cbz = O=C(OCc1ccccc1)*
Respond using exactly one of the listed classes: 1 for active, -1 for inactive

- compound: "COC(=O)C1OCOC2C(CO)OCOC12 (stereo not drawn)"
  qualitative-label: -1
- compound: "Cn1c(=O)c2c(nc(CN3CCOCC3)n2C)n(C)c1=O"
  qualitative-label: -1

IN: Outcome? CC(NC(=O)c1ccccc1)c1ccc[nH]1 (stereo not drawn)
OUT: -1

IN: Write down the call the test reported for this compound. Item: `O=S(=O)(O)SCC1=NCCN1`
OUT: -1

IN: Which outcome was assigned to Cc1cc(O)c2c(c1)C[C@@H](O)C1=C2C(=O)c2c(O)ccc(OC3CC(O)C(OC4CC(OC5CCC(OC6CC(O)C(OC7CC(OC8CCC(O)C(C)O8)C(O)C(C)O7)C(C)O6)C(C)O5)C(O)C(C)O4)C(C)O3)c2C1=O (stereo partly drawn) in this test?
OUT: 1

IN: Could you please tell me the result logged for O=C(O)CNC(=O)c1ccc2cc(C(=O)N3CC(CCl)c4ccc([N+](=O)[O-])cc43)[nH]c2c1 (stereo not drawn) in this assay?
OUT: -1

IN: So what was the verdict on `O=C(CCCl)Nc1cccc(CCC(=O)c2ccccc2NC(=O)CCCl)c1` in this test?
OUT: -1

IN: What did this assay record as the result for O=C(O)CCC(NC(=O)OCc1ccccc1)C(=O)NCC(=O)O (stereo not drawn) (Cbz-[ξE]-Gly-OH) ?
OUT: -1

IN: Lab log entry: NC(CCOCCP(=O)(O)CCC1C=CC=CC1)C(=O)O (stereo not drawn) — outcome as called in the assay?
OUT: -1

IN: Each compound tested received a call. Report the one for `Brc1ccccc1C(Nc1nncs1)Nc1nncs1` .
OUT: -1

IN: What classification did Cc1cc(N)c(NC2OC(CO)C(O)C2O)cc1C (stereo not drawn) end up with in this test?
OUT: -1

IN: Call for entry CCC1CC(O)c2ccccc2O1 (stereo not drawn) :
OUT: -1

IN: In this assay, the call recorded for `CN(C)CCCCC(C#N)(c1ccccc1)c1ccccc1` was what?
OUT: -1

IN: Given `CCCCCCCCCCCCCCCCCC(=O)OCC([N+](=O)[O-])([N+](=O)[O-])[N+](=O)[O-]` , state the outcome it received in this test.
OUT: -1

IN: Name the outcome recorded for COCCN(C(=O)c1ccccc1)C1CCC2(SCCS2)c2[nH]c3ccccc3c21 (stereo not drawn) in the assay.
OUT: -1

IN: Assay result, entry `CN(C)Cc1cc(C(=O)O)ccc1O` — outcome?
OUT: -1

IN: State the result this test recorded for `CCOC(=O)C1=C(C(=O)c2ccccc2)C(c2ccc(Cl)cc2Cl)C(C(=O)c2ccccc2)=C(C(=O)OCC)N1` .
OUT: -1

IN: // outcome(item) with item = `Cn1c(N)c(C(=O)/C=C/c2ccccc2)c(=O)n(C)c1=O`
OUT: -1

IN: Test call for this compound, please: `O=P(c1ccccc1)(c1ccccc1)c1ccccc1OCCOCCOc1ccccc1P(=O)(c1ccccc1)c1ccccc1`
OUT: -1

---

assay: NCI Yeast Anticancer Drug Screen. Data for the bub3 strain (AID 167); settings: S. cerevisiae bub3 mutant strain, at 50.0 µM, active compounds read high
About 79,000 compounds went through this panel and 15% of them were active in at least one assay; those are over-represented in the sample as a whole.
A collection of compounds and their measured growth inhibition
# unit: % | format: bare number

Sample answers from the record:
- compound: "CC(=O)CCCO"
  growth inhibition [%]: 19.1
- compound: "NC1c2c(Cl)sc(Cl)c2C(=O)C1O (stereo not drawn)"
  growth inhibition [%]: 4
- compound: "Cc1cc(C)nc(NS(=O)(=O)c2ccc(NC(=O)c3ccc(Cl)c4c(Nc5ccc(S(=O)(=O)Nc6nc(C)cc(C)n6)cc5)c5ccccc5nc34)cc2)n1"
  growth inhibition [%]: 27.8
- compound: "NC(=O)c1ccc2c(c1)-c1nc-2nc2[n-]c(nc3nc(nc4[n-]c(n1)c1ccc(C(N)=O)cc41)-c1ccc(C(N)=O)cc1-3)c1ccc(C(N)=O)cc21.[Co+2]"
  growth inhibition [%]: 35
- compound: "Cc1cc(C)nc(N)c1"
  growth inhibition [%]: -3.25

Measured growth inhibition, `CCC[CH2][Ge]([Cl])([Cl])[CH2]CCC` : 40.9

Per the records, this compound ( O=C1C2=C(c3ccccc31)C(c1ccccc1Cl)N1C(=O)CSC1=N2 (stereo not drawn) ) has growth inhibition equal to 53.8

---

assay: NCI Yeast Anticancer Drug Screen. Data for the mec2-1 strain (AID 157); conditions: S. cerevisiae mec2-1 strain, at 50.0 µM, active compounds read high
Compounds without any hit were thinned out: in the full panel of roughly 79,000, 15% have a hit.
quantity: growth inhibition (%)
// units = %; emit number, no label

- compound: "Cn1cnc([N+](=O)[O-])c1Sc1nc(N)nc2c1ncn2C1OC(CO)C(O)C1O (stereo not drawn)"
  readout-units: "%"
  reported-measurement: 20.3
- compound: "COc1cccc(NC(=S)/C(=C(/[O-])c2ccc([N+](=O)[O-])cc2)[n+]2cccc3ccccc32)c1"
  readout-units: "%"
  reported-measurement: 19.2
- compound: "CCCNc1cc2c(cc1Br)-c1ccccc1C2=O"
  readout-units: "%"
  reported-measurement: -3
- compound: "CCCCCCCCCCCCCCOc1ccc(S(=O)(=O)/N=C(\\N)NC(N)=NCCCCCCCCCC)cc1"
  readout-units: "%"
  reported-measurement: -9.6
- compound: "CC(C)CCCC(C)C1CCC2C3CC=C4CC(OC(=O)C56C=CC(=O)C5C5C=CC6CC5)CCC4(C)C3CCC12C (stereo not drawn)"
  readout-units: "%"
  reported-measurement: 21.6

GET /value?item= `CN(C)c1ccc(/C=N/NC(=O)c2ccccc2NC(=O)c2ccccc2)cc1` &field=growth inhibition returns -20.3

---

experiment: NCI Yeast Anticancer Drug Screen. Data for the cln2 rad14 strain (AID 165);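 also: 0% = growth equal to vehicle treated cultures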; conditions: S. cerevisiae cln2 rad14 strain, at 50.0 µM, active compounds read high
Compounds without any hit were thinned out: in the full panel of roughly 79,000, 15% have a hit.
growth inhibition overview
# output: bare number, implied unit %

- compound: "COc1cc(C=O)ccc1OC(=O)Nc1cccc(Cl)c1C"
  growth inhibition / %: 1.9

Now consider a different compound.
Item: `C=CCCCCCCCCCCCCCC` | growth inhibition: 10

---

assay: NCI Yeast Anticancer Drug Screen. Data for the sgs1 mgt1 strain (AID 161);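 also: 0% = growth of cultures given vehicle only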; conditions: S. cerevisiae sgs1 mgt1 strain, at 50.0 µM, active compounds read high
This is part of a sample that, as a whole, favours compounds with a hit. Of some 79,000 tested, about 15% had one in any assay.
quantity: growth inhibition (%)
Kindly provide the numeric value in % only, without the unit symbol.

- compound: "CCN(c1ccccc1)S(=O)(=O)c1ccc(Oc2ccccc2)c(N)c1"
  growth inhibition / %: 16.9
- compound: "CCOC(=O)[C@H]1Nc2c(cccc2[N+](=O)[O-])[C@H]2OCC[C@@H]12"
  growth inhibition / %: -0.45
- compound: "O=C1CC(c2ccccc2)S(=O)(=O)c2ccccc2N1 (configuration not stated)"
  growth inhibition / %: 1.5
- compound: "CC[Si](CC)(CC)[Si](c1ccccc1)(c1ccccc1)c1ccccc1"
  growth inhibition / %: 17.1
- compound: "CN(c1ccccc1Cl)S(=O)(=O)c1ccc([N+](=O)[O-])cc1"
  growth inhibition / %: 12.2
- compound: "C=CCC(C)C(=O)NNC(=O)C(C)CC=C (configuration not stated)"
  growth inhibition / %: -1.85
- compound: "C/C(=N/NC(=S)N1CCCCCC1)c1ccccc1O"
  growth inhibition / %: 5.6
- compound: "O=C(O)c1ccc(C(=O)C2CC(C(=O)O)CCC2S(=O)(=O)O)cc1 (configuration not stated)"
  growth inhibition / %: -19.8

Proceeding to the next compound to report its growth inhibition.
Memo: `Cc1ccc(CO)cc1` , reported growth inhibition: 21.9
